Data origin: the supplement of paper PMC12698765

System: 409B2 hiPSC (iCRISPR Cas9, FRMD7 editing)
Assay: MMEJ-attributed deletion frequency relative to solvent control (fold (ratio to mock)); higher = more MMEJ outcomes
Details: 2000 nM
Where a name gives a salt, the structure may show the parent alone.
MMEJ-attributed deletion frequency vs 1: at or above is TRUE, below is FALSE.

• CN(C)C(=O)Oc1cccc([N+](C)(C)C)c1 [Hodostin] (in DMSO) = FALSE
• Nc1c(CC(=O)O)cccc1C(=O)c1ccc(Br)cc1 [Bromfenac Sodium] (in DMSO) = FALSE

Qu. In plain terms: is recorded MMEJ-attributed deletion frequency at least 1 for CC(CCc1ccccc1)NCC(O)c1ccc(O)c(C(N)=O)c1 (stereo not drawn) [Labetalol HCl] (in DMSO) ?
Ans. TRUE

Qu. In plain terms: is recorded MMEJ-attributed deletion frequency at least 1 for CCN1CCC[C@H]1CNC(=O)c1cc(S(N)(=O)=O)ccc1OC [Levosulpiride] (in DMSO) ?
Ans. TRUE

Qu. In plain terms: is recorded MMEJ-attributed deletion frequency at least 1 for O=C1CN(/N=C/c2ccc(-c3ccc([N+](=O)[O-])cc3)o2)C(=O)N1 [Dantrolene, sodium salt] (in DMSO) ?
Ans. TRUE

Qu. In plain terms: is recorded MMEJ-attributed deletion frequency at least 1 for Cc1nc(=O)c2cc(CN(C)c3ccc(C(=O)N[C@@H](CCC(=O)O)C(=O)O)s3)ccc2[nH]1 [Raltitrexed] (in DMSO) ?
Ans. FALSE

Qu. In plain terms: is recorded MMEJ-attributed deletion frequency at least 1 for N=C(NCCCCCCNC(=N)NC(=N)Nc1ccc(Cl)cc1)NC(=N)Nc1ccc(Cl)cc1 [Chlorhexidine HCl] (in DMSO) ?
Ans. TRUE

Qu. In plain terms: is recorded MMEJ-attributed deletion frequency at least 1 for O=[N+]([O-])O[C@@H]1CO[C@H]2[C@@H]1OC[C@@H]2O [Isosorbide 5-mononitrate] (in DMSO) ?
Ans. FALSE
